Please provide measured pKi for the entries that follow.
- TARGET_DESC: MMP-12h (Homo sapiens (Human), UniProt P39900)
- Sequence (P39900 106-470): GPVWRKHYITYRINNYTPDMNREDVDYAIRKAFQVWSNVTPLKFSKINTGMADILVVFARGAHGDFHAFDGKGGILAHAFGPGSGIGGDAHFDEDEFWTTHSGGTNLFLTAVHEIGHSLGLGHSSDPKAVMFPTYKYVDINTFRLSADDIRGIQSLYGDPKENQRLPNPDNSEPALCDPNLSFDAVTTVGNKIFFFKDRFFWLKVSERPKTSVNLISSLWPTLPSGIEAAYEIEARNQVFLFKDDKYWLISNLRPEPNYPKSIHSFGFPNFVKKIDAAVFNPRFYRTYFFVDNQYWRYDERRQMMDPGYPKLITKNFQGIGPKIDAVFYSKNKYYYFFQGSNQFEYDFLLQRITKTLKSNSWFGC
- PROCEDURE_TEXT: Inhibition constant (Ki) on MMP-12h
- Format: biochemical
- MEASUREMENT_CONTEXT: read-out: Ki MMP-12h; human MMP-12
Give bare numbers, as −log10 of the molar value.

Look over these answered cases.
Return the recorded pKi value; entry: COc1cccc(-c2ccc(CCC(=O)N[C@@H](CCC(=O)O)C(=O)N[C@@H](CCC(=O)O)C(N)=O)cc2)c1
7.46

Please give measured pKi of the following entry: NC(=O)[C@H](CCC(=O)O)NC(=O)CCc1ccc(-c2cc(-c3ccccc3)cs2)cc1
8.44

Look up pKi of C[C@H](NC(=O)CCc1ccc(-c2ccc(-c3ccccc3)cc2)cc1)C(=O)N[C@@H](CCC(=O)O)C(N)=O and report it.
6.60

Supply recorded pKi for NC(=O)[C@H](Cc1ccc(O)cc1)NC(=O)[C@H](CCC(=O)O)NC(=O)CCc1ccc(-c2cccs2)cc1 here.
7.68

Please report the measured pKi for O=C(O)CC[C@H](NC(=O)CCc1ccc(-c2ccc(-c3ccccc3)cc2)cc1)C(=O)Nc1cccc(CC(=O)O)c1
8.98

For the 5 compounds below, give their pKi values.
1. NCCCC[C@H](NC(=O)[C@H](CCC(=O)O)NC(=O)CCc1ccc(-c2ccccc2)cc1)C(N)=O
2. NC(=O)[C@@H](CCC(=O)O)NC(=O)[C@@H](CCC(=O)O)NC(=O)CCc1cc(-c2ccc(-c3cccc(Cl)c3)cc2)no1
3. NC(=O)[C@H](CCC(=O)O)NC(=O)[C@H](CCC(=O)O)NC(=O)CCc1ccc(-c2ccc(-c3ccccc3)cc2)cc1
4. NC(=O)[C@H](CCC(=O)O)NC(=O)[C@H](CC(=O)O)NC(=O)CCc1ccc(-c2cc(-c3ccccc3)cs2)cc1
5. NC(=O)[C@H](CCC(=O)O)NC(=O)[C@H](CCC(=O)O)NC(=O)CCc1ccc(-c2ccc(-c3nc4ccccc4s3)s2)cc1

6.92
6.57
8.79
7.82
7.77

For each of the items listed, what is its pKi?
1. NC(=O)[C@H](CCC(=O)O)NC(=O)[C@H](CCC(=O)O)NC(=O)CCc1cc(-c2ccccc2)on1
2. CC(C)C[C@H](NC(=O)[C@H](CCC(=O)O)NC(=O)CCc1ccc(-c2cccs2)cc1)C(N)=O
3. NC(=O)[C@H](CCC(=O)O)NC(=O)[C@H](CCC(=O)O)NC(=O)CCc1ccc(-c2cccc(N)c2)cc1

[6.80, 7.49, 6.72]

* * *

- TARGET_DESC: UniProtKB P08253
- Sequence (P08253 110-660): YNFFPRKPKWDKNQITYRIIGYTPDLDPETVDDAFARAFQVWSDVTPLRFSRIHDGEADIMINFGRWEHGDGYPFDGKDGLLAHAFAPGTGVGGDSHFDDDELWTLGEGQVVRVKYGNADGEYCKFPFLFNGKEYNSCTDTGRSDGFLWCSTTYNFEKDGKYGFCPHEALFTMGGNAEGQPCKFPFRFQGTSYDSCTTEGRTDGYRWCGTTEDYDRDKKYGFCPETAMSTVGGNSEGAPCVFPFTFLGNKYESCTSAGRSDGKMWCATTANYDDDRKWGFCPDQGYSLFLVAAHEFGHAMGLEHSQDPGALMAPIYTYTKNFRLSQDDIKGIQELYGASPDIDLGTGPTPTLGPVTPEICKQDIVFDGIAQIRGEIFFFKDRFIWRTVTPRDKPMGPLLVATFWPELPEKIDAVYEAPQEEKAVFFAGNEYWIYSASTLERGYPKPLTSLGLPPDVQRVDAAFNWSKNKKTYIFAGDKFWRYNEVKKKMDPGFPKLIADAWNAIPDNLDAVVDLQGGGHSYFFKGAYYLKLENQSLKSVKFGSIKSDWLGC
- PROCEDURE_TEXT: Inhibition constant (Ki) on MMP-2h
- Format: biochemical
- MEASUREMENT_CONTEXT: read-out: Ki MMP-2h; human MMP-2
Exercise: for every item that follows, state its recorded log10 of Ki.
The base-10 logarithm of Ki, taken with Ki in nM, is what appears here.

Take a look at these entries with their results.
State its log10 of Ki for this compound: NC(=O)[C@H](CCC(=O)O)NC(=O)[C@H](CC(=O)O)NC(=O)CCc1cc(-c2ccc(-c3ccccc3)cc2)no1
1.81

State, in one line, measured log10 of Ki of NC(=O)[C@H](CCC(=O)O)NC(=O)[C@H](CCC(=O)O)NC(=O)[C@H](Cc1cc(-c2ccc(-c3cccc(Cl)c3)cc2)no1)CP(=O)(O)c1ccc(Br)cc1 [RXP470, reference compound]
1.86

Consider the following items and state reported log10 of Ki for each.
1. O=C(O)CC[C@H](NC(=O)CCc1ccc(-c2ccc(-c3ccccc3)cc2)cc1)C(=O)N1CCC[C@@H](CC(=O)O)C1
2. NC(=O)[C@H](CC(=O)O)NC(=O)[C@H](CCC(=O)O)NC(=O)CCc1ccc(-c2ccc(-c3ccccc3)cc2)cc1
3. NC(=O)[C@H](CC(=O)O)NC(=O)[C@H](CC(=O)O)NC(=O)CCc1cc(-c2ccc(-c3cccc(Cl)c3)cc2)no1
4. NC(=O)[C@H](CCC(=O)O)NC(=O)[C@H](CCC(=O)O)NC(=O)[C@@H](CC(=O)O)Cc1ccc(-c2cc(-c3ccccc3)cs2)cc1
5. NC(=O)[C@H](CO)NC(=O)[C@H](CCC(=O)O)NC(=O)CCc1ccc(-c2cccs2)cc1
6. NC(=O)[C@H](CCC(=O)O)NC(=O)[C@H](CCC(=O)O)NC(=O)CCc1ccc(-c2ccc(-c3ccccc3)cc2)cc1
7. CC(C)C[C@H](NC(=O)[C@H](CCC(=O)O)NC(=O)CCc1ccc(-c2cccs2)cc1)C(N)=O
8. NC(=O)[C@H](CCC(=O)O)NC(=O)[C@H](CCC(=O)O)NC(=O)CCc1ccc(-c2ccc(-c3ccccc3)s2)cc1

1: 1.08; 2: 1.74; 3: 1.93; 4: 2.60; 5: 2.17; 6: 1.72; 7: 2.47; 8: 2.45

Give the reported value of log10 of Ki for this record: NC(=O)[C@H](CCC(=O)O)NC(=O)[C@H](CCC(=O)O)NC(=O)CCc1cc(-c2ccccc2)no1
2.88

* * *

Task for the reader: assign each of the following compounds its reported pKi.
- TARGET_DESC: MMP-14h (Homo sapiens (Human), UniProt P50281)
- PROCEDURE_TEXT: Inhibition constant (Ki) on MMP-14h
- Type: biochemical
- MEASUREMENT_CONTEXT: human MMP-14
pKi: −log10 of the molar value.

Please indicate pKi recorded for NC(=O)[C@H](CCC(=O)O)NC(=O)[C@H](CCCC(=O)O)NC(=O)CCc1ccc(-c2cc(-c3ccccc3)cs2)cc1 [Compound 102]
< 5.00

Specify measured pKi for NC(=O)[C@H](CCC(=O)O)NC(=O)[C@H](CCC(=O)O)NC(=O)CCc1ccc(-c2ccccc2)cc1 [Compound 40] .
< 5.30

Let me know recorded pKi for NC(=O)[C@H](CC(=O)O)NC(=O)[C@H](CCC(=O)O)NC(=O)CCc1cc(-c2ccc(-c3ccccc3)cc2)no1 [Compound 18] , thanks.
< 6.00

State its pKi: NC(=O)[C@H](CCC(=O)O)NC(=O)[C@H](CCC(=O)O)NC(=O)CCc1ccc(-c2nccs2)cc1 [Compound 37]
< 6.00

Quote pKi reported for NC(=O)CC[C@H](NC(=O)CCc1ccc(-c2ccc(-c3ccccc3)cc2)cc1)C(=O)N[C@@H](CCC(=O)O)C(N)=O [Compound 72] please.
< 5.30

Give recorded pKi. NC(=O)CC[C@H](NC(=O)[C@H](CCC(=O)O)NC(=O)CCc1ccc(-c2ccccc2)cc1)C(N)=O [Compound 42]
< 6.00

Now look at this one.
State, in one line, measured pKi of NC(=O)[C@H](CCC(=O)O)NC(=O)[C@H](CCC(=O)O)NC(=O)CCc1ccc(-n2cccc2)cc1 [Compound 36]
< 5.30

* * *

Provide the reported pKi of each item.
- TARGET_DESC: MMP-14h (Homo sapiens (Human), UniProt P50281)
- PROCEDURE_TEXT: Inhibition constant (Ki) on MMP-14h
- Type: biochemical
- MEASUREMENT_CONTEXT: read-out: Ki MMP-14h; human MMP-14
pKi: −log10 of the molar value.

Given the molecule NC(=O)[C@H](CCC(=O)O)NC(=O)[C@H](CCC(=O)O)NC(=O)CCc1cn(-c2ccccc2)nn1 [Compound 24] , write its reported pKi.
< 5.30

Output measured pKi for this item: NC(=O)[C@H](CCC(=O)O)NC(=O)[C@H](CCC(=O)O)NC(=O)[C@@H](CC(=O)O)Cc1ccc(-c2cc(-c3ccccc3)cs2)cc1 [95 bis]
6.93

Note pKi for the molecule shown: NC(=O)[C@H](CCC(=O)O)NC(=O)[C@H](Cc1cnc[nH]1)NC(=O)CCc1ccc(-c2cc(-c3ccccc3)cs2)cc1 [Compound 104]
< 5.30

Read the entry C[C@H](NC(=O)[C@H](CCC(=O)O)NC(=O)CCc1ccc(-c2ccccc2)cc1)C(N)=O [Compound 47] and write its reported pKi.
< 5.30

Report pKi for NC(=O)[C@H](CC(=O)O)NC(=O)[C@H](CCC(=O)O)NC(=O)CCc1cc(-c2ccc(-c3cccc(Cl)c3)cc2)no1 [Compound 8]
< 6.00

Consider the following items and state reported pKi for each.
1. Cc1ccsc1-c1ccc(CCC(=O)N[C@@H](CCC(=O)O)C(=O)N[C@@H](CCC(=O)O)C(N)=O)cc1 [Compound 107]
2. NC(=O)[C@H](CCC(=O)O)NC(=O)[C@H](CCC(=O)O)NC(=O)CCc1noc(-c2ccccc2)n1 [Compound 26]

["< 5.30", "< 5.30"]

* * *

- TARGET_DESC: UniProt:P22894
- Sequence (P22894 101-467): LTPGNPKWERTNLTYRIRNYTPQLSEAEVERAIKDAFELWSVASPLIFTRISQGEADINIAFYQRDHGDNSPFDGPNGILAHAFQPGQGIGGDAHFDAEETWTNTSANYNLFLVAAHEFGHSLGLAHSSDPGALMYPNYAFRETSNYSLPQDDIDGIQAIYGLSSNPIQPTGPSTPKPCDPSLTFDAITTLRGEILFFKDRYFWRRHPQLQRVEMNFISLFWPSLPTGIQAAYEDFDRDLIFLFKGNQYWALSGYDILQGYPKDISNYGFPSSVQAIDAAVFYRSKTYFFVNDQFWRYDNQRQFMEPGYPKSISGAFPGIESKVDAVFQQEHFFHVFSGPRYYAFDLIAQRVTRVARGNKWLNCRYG
- PROCEDURE_TEXT: Inhibition constant (Ki) on MMP-8h
- Type: biochemical
- MEASUREMENT_CONTEXT: read-out: Ki MMP-8h; human MMP-8
READOUT: Ki (nM)
Give bare numbers, in nM.

Worked examples follow.
Entry CC(C)C[C@H](NC(=O)[C@H](CCC(=O)O)NC(=O)CCc1ccc(-c2cccs2)cc1)C(N)=O needs its Ki filled in; supply it.
73

Answer with the recorded Ki for the compound listed here: O=C(O)CC[C@H](NC(=O)CCc1ccc(-c2ccccc2)cc1)C(=O)Nc1cccc(CC(=O)O)c1
63

Determine from records and report Ki for NC(=O)CC[C@H](NC(=O)[C@H](CCC(=O)O)NC(=O)CCc1ccc(-c2ccc(-c3ccccc3)cc2)cc1)C(N)=O
452

Provide one value: measured Ki of NC(=O)[C@H](CC(=O)O)NC(=O)[C@H](CCC(=O)O)NC(=O)CCc1ccc(-c2ccccc2)cc1
233

We next turn to a different compound, shown below.
Return Ki for the following compound: NC(=O)[C@H](Cc1ccc(O)cc1)NC(=O)[C@H](CCC(=O)O)NC(=O)CCc1ccc(-c2ccc(-c3ccccc3)cc2)cc1
793
